# particulars: 303.15 K; 101.33 kPa; Liquid; Concentric cylinders viscometry
parameter: viscosity (mPa·s)

input: // Input: CCCCCn1cc[n+](C)c1.O=C([O-])O [3-methyl-1-pentylimidazolium hydrogen carbonate] . Output its viscosity only.
output: 85.09

input: // Input: CCCCn1cc[n+](C)c1.O=P([O-])(O)O [1-butyl-3-methylimidazolium dihydrogen phosphate] . Output its viscosity only.
output: 101.1

input: // Input: CCCCCn1cc[n+](C)c1C.O=S(=O)([O-])O [2,3-dimethyl-1-pentylimidazolium hydrogen sulfate] . Output its viscosity only.
output: 358.7

input: // Input: CCCCn1cc[n+](C)c1.O=C([O-])O [1-butyl-3-methylimidazolium hydrogen carbonate] . Output its viscosity only.
output: 57.64

[A] CCC[n+]1ccn(C)c1.O=P([O-])(O)O [1-methyl-3-propylimidazolium dihydrogen phosphate]
[B] CCCCn1cc[n+](C)c1C.O=S(=O)([O-])O [1-butyl-2,3-dimethylimidazolium hydrogen sulfate]
input: Of A and B , which one carries the higher reported viscosity? Returns: label corresponding to the selected item.
output: B

[A] CCn1cc[n+](C)c1C.O=S(=O)([O-])O [1-ethyl-2,3-dimethylimidazolium hydrogen sulfate]
[B] CCCn1cc[n+](C)c1C.O=S(=O)([O-])O [2,3-dimethyl-1-propylimidazolium hydrogen sulfate]
input: Of A and B , which one carries the higher reported viscosity? Returns: label corresponding to the selected item.
output: B
(B: 194.2 mPa·s, A: 134.9 mPa·s)

###

# particulars: 308.15 K, Maximal bubble pressure
parameter: surface tension liquid-gas (mN/m)

The cases that follow already have their surface tension liquid-gas on record.
input: // Input: CCCCn1cc[n+](C)c1.O=P([O-])(O)O [1-butyl-3-methylimidazolium dihydrogen phosphate] . Output its surface tension liquid-gas only.
output: 42.9

input: // Input: CCCn1cc[n+](C)c1C.O=S(=O)([O-])O [2,3-dimethyl-1-propylimidazolium hydrogen sulfate] . Output its surface tension liquid-gas only.
output: 46.6

input: // Input: CCC[n+]1ccn(C)c1.O=P([O-])(O)O [1-methyl-3-propylimidazolium dihydrogen phosphate] . Output its surface tension liquid-gas only.
output: 45.2

input: // Input: CCCCC[n+]1ccn(C)c1.O=P([O-])(O)O [1-methyl-3-pentylimidazolium dihydrogen phosphate] . Output its surface tension liquid-gas only.
output: 40.6

input: // Input: CCCCn1cc[n+](C)c1C.O=S(=O)([O-])O [1-butyl-2,3-dimethylimidazolium hydrogen sulfate] . Output its surface tension liquid-gas only.
output: 44.2

input: // Input: CCCCn1cc[n+](C)c1.O=C([O-])O [1-butyl-3-methylimidazolium hydrogen carbonate] . Output its surface tension liquid-gas only.
output: 33.1

[P] CCCCCn1cc[n+](C)c1.O=C([O-])O [3-methyl-1-pentylimidazolium hydrogen carbonate]
[Q] CCn1cc[n+](C)c1C.O=S(=O)([O-])O [1-ethyl-2,3-dimethylimidazolium hydrogen sulfate]
input: // task: argmin of surface tension liquid-gas over [ P , Q ] Returns: label corresponding to the selected item.
output: P

###

# particulars: 333.15 K; 101.33 kPa; Liquid; Alternating current cell with electrodes
parameter: electrical conductivity (S/m)

The cases that follow already have their electrical conductivity on record.
input: // Input: CCCCC[n+]1ccn(C)c1.O=P([O-])(O)O [1-methyl-3-pentylimidazolium dihydrogen phosphate] . Output its electrical conductivity only.
output: 0.665

input: // Input: CCn1cc[n+](C)c1C.O=S(=O)([O-])O [1-ethyl-2,3-dimethylimidazolium hydrogen sulfate] . Output its electrical conductivity only.
output: 0.665

input: // Input: CCC[n+]1ccn(C)c1.O=P([O-])(O)O [1-methyl-3-propylimidazolium dihydrogen phosphate] . Output its electrical conductivity only.
output: 1.3

input: // Input: CCCCCn1cc[n+](C)c1.O=C([O-])O [3-methyl-1-pentylimidazolium hydrogen carbonate] . Output its electrical conductivity only.
output: 0.671

input: // Input: CCCn1cc[n+](C)c1C.O=S(=O)([O-])O [2,3-dimethyl-1-propylimidazolium hydrogen sulfate] . Output its electrical conductivity only.
output: 0.6

input: // Input: CCCCn1cc[n+](C)c1.O=C([O-])O [1-butyl-3-methylimidazolium hydrogen carbonate] . Output its electrical conductivity only.
output: 0.823

input: // Input: CCCCCn1cc[n+](C)c1C.O=S(=O)([O-])O [2,3-dimethyl-1-pentylimidazolium hydrogen sulfate] . Output its electrical conductivity only.
output: 0.485

[I] CCCCn1cc[n+](C)c1.O=P([O-])(O)O [1-butyl-3-methylimidazolium dihydrogen phosphate]
[II] CCCCn1cc[n+](C)c1C.O=S(=O)([O-])O [1-butyl-2,3-dimethylimidazolium hydrogen sulfate]
input: // task: argmin of electrical conductivity over [ I , II ] Returns: label corresponding to the selected item.
output: II

###

# particulars: 338.15 K; 101.33 kPa; Liquid; Vibrating tube method
parameter: mass density (kg/m3)

input: // Input: CCCCn1cc[n+](C)c1C.O=S(=O)([O-])O [1-butyl-2,3-dimethylimidazolium hydrogen sulfate] . Output its mass density only.
output: 1184.29

input: // Input: CCCCC[n+]1ccn(C)c1.O=P([O-])(O)O [1-methyl-3-pentylimidazolium dihydrogen phosphate] . Output its mass density only.
output: 1116.63

input: // Input: CCCCCn1cc[n+](C)c1.O=C([O-])O [3-methyl-1-pentylimidazolium hydrogen carbonate] . Output its mass density only.
output: 1113.75

input: // Input: CCCCn1cc[n+](C)c1.O=P([O-])(O)O [1-butyl-3-methylimidazolium dihydrogen phosphate] . Output its mass density only.
output: 1149.36

input: // Input: CCC[n+]1ccn(C)c1.O=P([O-])(O)O [1-methyl-3-propylimidazolium dihydrogen phosphate] . Output its mass density only.
output: 1167.24

input: // Input: CCn1cc[n+](C)c1C.O=S(=O)([O-])O [1-ethyl-2,3-dimethylimidazolium hydrogen sulfate] . Output its mass density only.
output: 1224.82

input: // Input: CCCn1cc[n+](C)c1C.O=S(=O)([O-])O [2,3-dimethyl-1-propylimidazolium hydrogen sulfate] . Output its mass density only.
output: 1204.81

input: // Input: CCCCCn1cc[n+](C)c1C.O=S(=O)([O-])O [2,3-dimethyl-1-pentylimidazolium hydrogen sulfate] . Output its mass density only.
output: 1165.21

input: // Input: CCCCn1cc[n+](C)c1.O=C([O-])O [1-butyl-3-methylimidazolium hydrogen carbonate] . Output its mass density only.
output: 1128.92

###

# particulars: 318.15 K; 101.33 kPa; Liquid; Concentric cylinders viscometry
parameter: viscosity (mPa·s)

input: // Input: CCCCn1cc[n+](C)c1.O=C([O-])O [1-butyl-3-methylimidazolium hydrogen carbonate] . Output its viscosity only.
output: 28.85

[1] CCCCCn1cc[n+](C)c1.O=C([O-])O [3-methyl-1-pentylimidazolium hydrogen carbonate]
[2] CCCCC[n+]1ccn(C)c1.O=P([O-])(O)O [1-methyl-3-pentylimidazolium dihydrogen phosphate]
input: Of 1 and 2 , which one carries the higher reported viscosity? Returns: label corresponding to the selected item.
output: 2

[I] CCCn1cc[n+](C)c1C.O=S(=O)([O-])O [2,3-dimethyl-1-propylimidazolium hydrogen sulfate]
[II] CCCCCn1cc[n+](C)c1C.O=S(=O)([O-])O [2,3-dimethyl-1-pentylimidazolium hydrogen sulfate]
[III] CCCCn1cc[n+](C)c1.O=P([O-])(O)O [1-butyl-3-methylimidazolium dihydrogen phosphate]
[IV] CCC[n+]1ccn(C)c1.O=P([O-])(O)O [1-methyl-3-propylimidazolium dihydrogen phosphate]
input: Sort entries by viscosity from minimum to maximum value. List the labels, following the order given in the request.
output: IV, III, I, II
(IV: 25.81 mPa·s, III: 53.62 mPa·s, I: 81.27 mPa·s, II: 176 mPa·s)

[A] CCCCn1cc[n+](C)c1C.O=S(=O)([O-])O [1-butyl-2,3-dimethylimidazolium hydrogen sulfate]
[B] CCn1cc[n+](C)c1C.O=S(=O)([O-])O [1-ethyl-2,3-dimethylimidazolium hydrogen sulfate]
input: // task: argmin of viscosity over [ A , B ] Returns: label corresponding to the selected item.
output: B

###

# particulars: 328.15 K; 101.33 kPa; Liquid; Vibrating tube method
parameter: mass density (kg/m3)

input: // Input: CCCCn1cc[n+](C)c1C.O=S(=O)([O-])O [1-butyl-2,3-dimethylimidazolium hydrogen sulfate] . Output its mass density only.
output: 1190.8

input: // Input: CCCCn1cc[n+](C)c1.O=C([O-])O [1-butyl-3-methylimidazolium hydrogen carbonate] . Output its mass density only.
output: 1136.1

input: // Input: CCCCn1cc[n+](C)c1.O=P([O-])(O)O [1-butyl-3-methylimidazolium dihydrogen phosphate] . Output its mass density only.
output: 1156.13

input: // Input: CCCCCn1cc[n+](C)c1.O=C([O-])O [3-methyl-1-pentylimidazolium hydrogen carbonate] . Output its mass density only.
output: 1120.73

input: // Input: CCC[n+]1ccn(C)c1.O=P([O-])(O)O [1-methyl-3-propylimidazolium dihydrogen phosphate] . Output its mass density only.
output: 1174.36
